A collection of compounds and their measured melting point

# annotated cases, reported melting point shown
INSERT INTO results (compound, assay_metric, result) VALUES
  ('Cn1c2c(c3cccc(C(=O)O)c31)CCCC2', 'melting point', '180 °C'),
  ('O=c1[nH][nH]c(=O)c(-c2c(F)cc(F)cc2F)c1-c1ccc(Br)cc1', 'melting point', '134 to 137 °C'),
  ('COCCN(c1cccc2cc(-c3nccs3)[nH]c12)S(=O)(=O)c1cccs1', 'melting point', '113 to 114 °C');

Query string: Sample O=C(O)CCNc1ccc2c(C(=O)NCC34CC5CC(CC(C5)C3)C4)c(Cl)ccc2n1 — what was its melting point?
Result string: 251 to 252 °C

Query string: Sample CCCCC(CC)Cn1c2cc(Br)ccc2c2ccc(Br)cc21 (stereo not given) — what was its melting point?
Result string: 95 to 97 °C

====

ASSAY METRIC: melting point

# annotated cases, reported melting point shown
INSERT INTO assay_data (compound, result) VALUES
  ('COc1cc(C)c(C(=O)c2c(C(F)(F)F)ccnc2Cl)cc1OCc1ccccc1', '116 to 117 °C'),
  ('COc1cc2c(cc1OC)C(c1ccc([N+](=O)[O-])cc1)NN(C1=NC(=O)C(C)S1)C(C)C2 (centres undefined)', '213 to 214 °C'),
  ('Cc1cc(-n2cnnc2)cc(C=O)c1N', '250 to 252 °C'),
  ('CCOCC(O)(COCC)C(Cc1cc(OC)cc(OC)c1)NC(=O)OC(C)(C)C (centres undefined)', '73.5 to 75 °C'),
  ('Cc1oc(-c2ccccc2)nc1CCOc1ccc(C[C@@H](C(=O)O)N2CCN(c3ccccc3)CC2)cc1', '218 to 220 °C'),
  ('COc1ccc(C(=O)c2ccc(OCc3nc(-c4ccccc4)oc3C)nc2)c(O)c1', '137 to 138 °C'),
  ('CC(=O)NC[C@H]1CN(c2ccc(-c3ncns3)c(F)c2)C(=O)O1', '199 to 200 °C'),
  ('CCn1cc(C(=O)O)c(=O)c2cc(F)c(C(C)=O)c(F)c21', '250 to 251 °C');

Attention now shifts to the item below.
Query string: Sample O=C(CC1CCCCC1)Nc1ccc2oc3c(c2c1)CCCCCC3 — what was its melting point?
Result string: 180 to 181 °C

====

A collection of compounds and their measured melting point

INSERT INTO measurements (compound, result) VALUES
  ('O=[N+]([O-])c1cn(-c2cccnc2)nc1Br', '139 to 141 °C'),
  ('CC(=O)C1=CCC2C3CCC4=CC(=O)C=CC4(C)C3(F)C(O)CC12C (stereo not given)', '327 to 328 °C'),
  ('CC(=O)OC1CSC(Oc2ccnc(-c3cccnc3)c2)C(OC(C)=O)C1OC(C)=O (stereo not given)', '185 °C'),
  ('O=C(c1cc(C(F)(F)F)cc(C(F)(F)F)c1)N1CCC2(CC1)C(=O)NCN2c1ccccc1Cl', '157 to 159 °C');

Query string: Sample C=CCOc1cccc2nn(C)c(S(N)(=O)=O)c12 — what was its melting point?
Result string: 143 to 144 °C

Query string: Sample CN(C1CN(C(=O)Nc2ccc(C(F)(F)F)cc2)N=C1c1ccc(Cl)cc1)S(C)(=O)=O (stereo not given) — what was its melting point?
Result string: 105 to 112 °C

Query string: Sample Fc1ccc(-c2nc3c(c(=S)[nH]2)CCCC3)cc1 — what was its melting point?
Result string: 198 to 200 °C
